# key: entry, value: pIC50
- Assay system: Neutral cholesterol ester hydrolase 1 (Homo sapiens)
- Sequence (Q6PIU2 whole entry): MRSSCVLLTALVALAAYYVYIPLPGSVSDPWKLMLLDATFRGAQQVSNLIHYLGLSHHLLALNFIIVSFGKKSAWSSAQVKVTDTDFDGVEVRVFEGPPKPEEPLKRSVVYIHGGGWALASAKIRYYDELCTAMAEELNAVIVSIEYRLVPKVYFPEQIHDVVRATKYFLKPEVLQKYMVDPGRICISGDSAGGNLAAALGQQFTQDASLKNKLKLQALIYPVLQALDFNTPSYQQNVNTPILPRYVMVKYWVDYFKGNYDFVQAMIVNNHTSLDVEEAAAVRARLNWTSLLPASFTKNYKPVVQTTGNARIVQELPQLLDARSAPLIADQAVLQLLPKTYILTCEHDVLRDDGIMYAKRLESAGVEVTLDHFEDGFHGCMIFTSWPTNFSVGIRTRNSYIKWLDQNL
pIC50: −log10 of the molar value.

Below: 3 compounds and their reported pIC50.
O=C(CCCCCCc1ccccc1)c1nnn[nH]1 :: 4.22
O=C(CCCCCCc1ccccc1)c1nnc(-c2ccccc2)o1 :: < 4.00
O=C(CCCCCCc1ccccc1)c1nnco1 :: < 4.00

Qu. Test system Neutral cholesterol ester hydrolase 1 (Homo sapiens); read-out pIC50; what value for O=C(CCCCCCc1ccccc1)c1nccs1 ?
Ans. < 4.00

Qu. Under Neutral cholesterol ester hydrolase 1 (Homo sapiens): pIC50 value of COC(=O)c1nc(C(=O)CCCCCCc2ccccc2)no1 ?
Ans. < 4.00

Qu. Request - read-out pIC50 | tested on Neutral cholesterol ester hydrolase 1 (Homo sapiens) | compound O=C(O)c1cccc(-c2cnc(C(=O)CCCCCCc3ccccc3)s2)n1
Ans. < 4.00

Qu. Form field: pIC50 recorded for COC(=O)c1cccc(-c2nnc(C(=O)CCCCCCc3ccccc3)o2)n1 with Neutral cholesterol ester hydrolase 1 (Homo sapiens) (enter value)
Ans. < 4.00

Qu. Could you share what pIC50 was measured for O=C(O)c1cccc(-c2nnc(C(=O)CCCCCCc3ccccc3)o2)n1 , tested on Neutral cholesterol ester hydrolase 1 (Homo sapiens)?
Ans. < 4.00

Qu. Provide value of pIC50 for this record tested with Neutral cholesterol ester hydrolase 1 (Homo sapiens): O=C(CCCCCCc1ccccc1)c1ncc(-c2ccccn2)s1
Ans. < 4.00

Qu. Which measured pIC50 belongs to O=C(CCCCCCc1ccccc1)c1ncc(-c2ccco2)o1 , tested on Neutral cholesterol ester hydrolase 1 (Homo sapiens)?
Ans. < 4.00

Qu. Query the reported pIC50 for Neutral cholesterol ester hydrolase 1 (Homo sapiens); item: COC(=O)c1cccc(-c2cnc(C(=O)CCCCCCc3ccccc3)s2)n1
Ans. < 4.00

Qu. Quick check: pIC50 on Neutral cholesterol ester hydrolase 1 (Homo sapiens), item COC(=O)c1cccc(-c2noc(C(=O)CCCCCCc3ccccc3)n2)n1 ?
Ans. 4.40

Qu. Please provide the recorded pIC50 for O=C(O)c1cccc(-c2noc(C(=O)CCCCCCc3ccccc3)n2)n1 , tested on Neutral cholesterol ester hydrolase 1 (Homo sapiens).
Ans. < 4.00

Qu. Give Neutral cholesterol ester hydrolase 1 (Homo sapiens) pIC50 for O=C(CCCCCCc1ccccc1)c1ncc(-c2ccccc2)o1
Ans. < 4.00

Qu. Tell me reported pIC50 for O=C(CCCCCCc1ccccc1)c1noc(-c2ccccn2)n1 , tested with Neutral cholesterol ester hydrolase 1 (Homo sapiens).
Ans. < 4.00

Qu. What is its pIC50 for Neutral cholesterol ester hydrolase 1 (Homo sapiens)? Entry: N#Cc1cccc(-c2ccc(C(=O)CCCCCCc3ccccc3)nn2)n1
Ans. < 4.00

Qu. Can you look up pIC50 on Neutral cholesterol ester hydrolase 1 (Homo sapiens) for O=C(CCCCCCc1ccccc1)c1ncon1 ?
Ans. < 4.00
